Data provenance: PubChem BioAssay AID493208

- RUN DESCRIPTION: Acumen qHTS Assay for Inhibitors of the mTORC1 Signaling Pathway in MEF (Tsc2-/-, p53-/-) Cells: Sytravon; further: nearly all actives have a fitted effect of over 50% in size
- RECORDED CONDITIONS: phospho-rpS6 immunofluorescence/PI, 24 h; series mostly up to 38.3 µM
The campaign covered roughly 44,000 compounds. About 340 (0.77%) were called active. Another 5% or so got no clear call; they are omitted. The call rests on the fitted dose curve; in most records, active means well fitted inhibition curve with a large enough effect; inconclusive means small, poorly fitted or top-dose-only effect; inactive means flat fitted curve, though single readings scatter. What follows is part of a selection rich in actives, with near analogues and random picks from the rest.
In this exercise, the only acceptable responses are yes (active), no (inactive)

Examples from the recorded data:
# fetch the recorded call for Clc1ccc(CSc2nncn3c2cc2occc23)cc1 here
no

Test call, this molecule: COc1cccc(CNC(=O)C2CCN(S(=O)(=O)c3ccc4c(ccn4C)c3)CC2)c1
no

State the result this test recorded for COc1cc(OC)cc(-c2nc3nc(C)c(CCC(=O)Nc4ccccc4)c(C)n3n2)c1 .
no

Would you mind telling me which call this test gave Cc1nc2c(c(C)nn2-c2ccccc2)c(C)c1CCC(=O)NCCc1ccc(Cl)cc1 ?
no

Give the logged outcome of this assay for the following molecule: COc1cc(C(=O)Nc2ccc(OCc3cc(=O)n4cc(C)sc4n3)cc2)cc(OC)c1OC
no

---
// param item: Cc1ccc(Cn2c(C)c3cnn(CC(=O)NCc4ccccc4)c(=O)c3c2C)cc1 ; yields the recorded call
no
